Where these numbers come from: patent US20220306733A1

Each entry below carries its reported Cell binding FON (Fold Over Negative).
Target: T1, human TIGIT on cells (Jurkat-hTIGIT, human primary T cells) (human, UniProt Q495A1 22-244)
T1 construct: whole, on cells; The cell type is named in each row's assay; also called membrane expressed human TIGIT
T1 sequence (looked up): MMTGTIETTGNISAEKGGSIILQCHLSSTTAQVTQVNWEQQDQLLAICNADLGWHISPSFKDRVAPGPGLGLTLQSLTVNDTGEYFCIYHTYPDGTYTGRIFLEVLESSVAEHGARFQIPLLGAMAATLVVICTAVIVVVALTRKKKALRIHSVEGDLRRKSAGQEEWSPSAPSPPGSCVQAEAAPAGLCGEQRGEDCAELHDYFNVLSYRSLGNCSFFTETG
Test: flow cytometry on Jurkat-hTIGIT, 100 nM antibody, vs untransfected Jurkat
Give the quantity in fold over negative, number only.

Field: example entries. Status: answers known.
anti-TIGIT antibody clone 29520 (antibody, V domains shown, human IgG; Fab for 'Fab KD' columns) VH: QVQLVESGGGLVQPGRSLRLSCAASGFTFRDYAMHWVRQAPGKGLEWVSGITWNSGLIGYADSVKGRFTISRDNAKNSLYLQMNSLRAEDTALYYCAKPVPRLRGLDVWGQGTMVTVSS VL: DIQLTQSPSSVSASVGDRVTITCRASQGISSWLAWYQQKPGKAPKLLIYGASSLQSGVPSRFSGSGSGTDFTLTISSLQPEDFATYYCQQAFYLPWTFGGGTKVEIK : 166
anti-TIGIT antibody clone 32919 (antibody, V domains shown, L1/L2/L3 optimised from 31288; human IgG) VH: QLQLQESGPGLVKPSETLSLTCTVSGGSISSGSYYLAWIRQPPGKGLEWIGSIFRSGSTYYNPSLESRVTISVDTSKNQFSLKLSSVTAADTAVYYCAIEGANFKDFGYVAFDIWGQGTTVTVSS VL: EIVLTQSPATLSLSPGERATLSCRASQSVSSYLAWYQQKPGQAPRLLIYDASNRATGIPARFSGSGSGTDFTLTISSLEPEDFAVYYCQQENPRPRTFGGGTKVEIK : 680

Kindly review the next binder as well.
Entry anti-TIGIT antibody clone 29494 (antibody, V domains shown, human IgG; Fab for 'Fab KD' columns) VH: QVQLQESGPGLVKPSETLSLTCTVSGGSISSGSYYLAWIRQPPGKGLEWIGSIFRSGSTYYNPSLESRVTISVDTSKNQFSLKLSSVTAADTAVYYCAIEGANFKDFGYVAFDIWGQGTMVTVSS VL: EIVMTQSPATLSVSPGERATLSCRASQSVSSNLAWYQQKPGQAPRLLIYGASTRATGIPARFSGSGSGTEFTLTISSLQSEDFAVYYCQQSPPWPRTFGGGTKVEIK , Cell binding FON (Fold Over Negative) reported as 164
